Kindly state IC50 for each of the entries shown.
# Test system: S2VP10
# experimentNotes: In vitro cell viability assay (Cell Titer Glo), pancreatic cancer S2VP10
# Type: cell-based
# assaySetup: S2VP10, adherent, complete medium 10% FBS, 72 h; read-out: Cell viability (IC50) S2VP10 Adherent

# example entries with known answers
FC(F)(F)Oc1ccc(-c2nc3cc(C(F)(F)F)c(Cl)cc3[nH]2)cc1 [Compound 26] | 6.92 µM
CCN1CCN(c2ccc(-c3nc4cc(Cl)c(Cl)cc4[nH]3)cc2)CC1 [Compound 14] | > 10 µM

We next turn to a different compound, shown below.
Q. Query IC50 for Clc1cc2nc(-c3ccc(N4CCCC4)cc3)[nH]c2nc1Cl [Compound 34]
A. > 10 µM

The reported numbers originate from patent US20170210741A1.
